Provide the reported inhibition of each item.
experiment: blockers of RIG-like receptor reporter activation – cell-based, Sendai virus stimulus, luciferase, 10K MLSCN set, TLR/RLR signaling modifier project, primary screen (AID 602276); settings: HEK293 RL24 IRF3 luciferase reporter, at 10 µM, stronger effect = higher value;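 further: firefly luciferase from ISG56 promoter only with Renilla not read in this screen; 0% = Sendai virus plus DMSO and 100% = medium plus DMSO without virus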
Write the value in % as a bare number.

Q. Consider the compound Cc1ccc(NC(=O)CSc2nnc(Cc3cccn3C)n2-c2ccc(F)cc2)cc1 and give its measured inhibition.
A. 8.62

Q. Could you tell me which inhibition is on file for CC(C)c1nccn1S(=O)(=O)c1cc(Cl)ccc1Cl ?
A. 8.92

Q. Look up inhibition: Cc1ccc2oc(C(=O)Nc3c(C)n(C)n(-c4ccccc4)c3=O)c(C)c2c1
A. -5.27

Q. Data request, read-out inhibition, for O=C(NCCC1=CCCCC1)c1cc2c(s1)CS(=O)(=O)C2
A. -7.34

Q. Which inhibition value belongs to O=c1c2cc(Cl)ccc2[nH]c(=S)n1Cc1ccco1 ?
A. 9.24

Q. Entry FC(F)Oc1ccc(-c2csc(Cc3nnc4n3CCCCC4)n2)cc1 : reported inhibition = ?
A. -0.365

Q. For the compound COc1cccc(-c2nnc(NC(C)=O)o2)c1 , what inhibition is on record?
A. -11

Q. Param item = Clc1ccc(OCc2nc(-c3ccccn3)no2)c(Br)c1 ; retrieve measured inhibition.
A. -31.1

Q. Given the compound O=C(OCC(=O)c1ccc[nH]1)c1ccc(S(=O)(=O)N2CCCCC2)cc1 , what is its reported inhibition?
A. 2.97

Q. // lookup inhibition for Cc1cc(C)cc(N(CC(=O)NC2CCC(C)CC2)S(=O)(=O)c2c(C)noc2C)c1 (stereo not drawn)
A. 7.51

Q. I have this compound here, CCOCCCNC(=O)CS(=O)(=O)Cc1nc(-c2cccc(OC)c2)oc1C , and I need its recorded inhibition.
A. 12.4

Q. Bench note: what inhibition did CC(C)OCCCNC(=O)c1cc2c(s1)CS(=O)(=O)C2 show?
A. 5.68

Q. // inhibition lookup, key: CCCCCn1c(CCNC(=O)CCC)nc2ccccc21
A. 10.2

Q. // lookup inhibition for CCC(c1nnnn1Cc1ccco1)N(CCc1ccccc1)Cc1cc2cccc(C)c2[nH]c1=O (stereo not drawn)
A. 25.2

Q. GET /values?readout=inhibition&item= S=c1[nH]nc(Cc2ccccc2)n1-c1ccccc1
A. 9.34

Q. Which inhibition is listed for O=C(O)C1C2CCC(O2)C1C(=O)NCCC1=CCCCC1 (stereo not drawn) ?
A. 1.86

Q. Please report the recorded inhibition for COc1ccc(-c2noc(CSc3nc(N)c(-c4ccccc4)c(=O)[nH]3)n2)cc1OC .
A. 12

Q. Return reported inhibition; argument: CCOc1cc(CN2CCN(C(=O)c3ccco3)CC2)ccc1OC
A. 11.7

Q. For the compound shown here, COc1ccccc1NC(=O)C1=C(C)Nc2nnnn2C1c1ccccc1OC (stereo not drawn) , give the reported inhibition.
A. 10.5

Q. Please give the measured inhibition for this compound: COC(=O)c1ccc(NC(=O)Cn2nnc3ccccc32)cc1
A. -21.8

Q. So what's the measured inhibition for this one? c1ccc(Cn2nnc3c(N4CCCCCC4)ncnc32)cc1
A. -20.2

Q. Can you look up the measured inhibition of Cc1nc2ccc(S(=O)(=O)NCC(=O)N(C)Cc3ccco3)cc2s1 for me?
A. 14.7

Q. Could you share which inhibition value was measured for CCOC(=O)c1c(NC(=O)c2nn(CC)cc2Br)c(C#N)cn1-c1ccccc1 ?
A. 0.0192
